target: DnaK (E. coli Hsp70 chaperone), ADP-state (E. coli, UniProt P0A6Y8 1-638); test: fluorescence polarisation
Sequence (P0A6Y8 whole entry): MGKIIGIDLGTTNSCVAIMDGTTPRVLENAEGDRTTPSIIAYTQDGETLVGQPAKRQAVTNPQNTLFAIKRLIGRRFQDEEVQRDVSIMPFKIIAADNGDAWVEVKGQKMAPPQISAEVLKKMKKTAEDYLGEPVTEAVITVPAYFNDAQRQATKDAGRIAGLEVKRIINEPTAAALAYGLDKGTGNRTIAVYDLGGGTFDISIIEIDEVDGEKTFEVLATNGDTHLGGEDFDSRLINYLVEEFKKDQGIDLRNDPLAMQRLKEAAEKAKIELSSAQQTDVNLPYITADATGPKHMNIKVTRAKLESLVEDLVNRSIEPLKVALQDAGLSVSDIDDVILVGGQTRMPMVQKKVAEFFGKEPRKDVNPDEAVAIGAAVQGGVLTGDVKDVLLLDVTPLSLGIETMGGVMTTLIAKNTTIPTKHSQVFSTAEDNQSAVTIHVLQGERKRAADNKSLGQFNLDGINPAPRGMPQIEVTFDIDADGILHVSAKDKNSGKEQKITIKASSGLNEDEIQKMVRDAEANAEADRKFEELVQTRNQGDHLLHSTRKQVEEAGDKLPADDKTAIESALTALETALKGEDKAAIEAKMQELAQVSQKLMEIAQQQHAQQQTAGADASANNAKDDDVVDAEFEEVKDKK
No end group written: not given here. AlexaFluor 488 = AlexaFluor 488 dye
Experimental endpoint: pKd
Worth noting: pKd values are minus log10 of concentrations stated in mol/L.

Ask: Please look at this binder and report its pKd: RRGKKLLLLLKKKGC(AlexaFluor 488) [KLR-70-C-AF488, AlexaFluor 488-conjugated KLR-70 peptide]
Reply: 5.76
